Hello, the source for this data is a melting point compilation (Tetko et al.; mined from patent text by program, amines drawn as free bases though some values may be those of a salt), in case you need it.

Measured melting point values are reported for all entries that follow.

Guide cases for melting point, answers given:
[
  {
    "compound": "O=C(O)c1c[nH]c2cc(C3CC3)nn2c1=O",
    "melting point": "275 to 278 °C"
  },
  {
    "compound": "Cc1cccc(C)c1NC(N)=NN",
    "melting point": "192 to 193 °C"
  },
  {
    "compound": "CC/C(=C\\CCC(O)(CC)CC)c1ccc(CCc2ccc(CO)c(CO)c2)s1",
    "melting point": "77 °C"
  },
  {
    "compound": "ON=C1c2ccccc2CCC1Cc1ccccc1 (stereo not drawn)",
    "melting point": "123 to 124 °C"
  },
  {
    "compound": "CC(C)CC(=O)Nc1c(C(=O)C2CCCCC2)[nH]c2cc(Cl)ccc12",
    "melting point": "209 to 215 °C"
  },
  {
    "compound": "COc1c(Cl)nc(N2CCOCC2)nc1Cl",
    "melting point": "116 °C"
  }
]

The reported melting point of the compound O=C(Nc1cccc(O)c1)c1ccc(CSc2ccc(O)cc2)cc1 was 218 to 222 °C

The reported melting point of the compound CC1(C)CC(=O)Nc2cc3nc(-c4ccccc4)[nH]c3cc21 was 296 to 298 °C

The reported melting point of the compound Cc1ccc(-c2cc(C(F)(F)F)n3cnc(C#N)c3n2)cc1 was 197 °C

The reported melting point of the compound NC(=O)Nc1cccc(CS(=O)(=O)O)c1 was 180 to 187 °C

The reported melting point of the compound CC(C)(C)c1cc(Oc2ccc(N)cc2)ccc1Oc1ccc(N)cc1 was 129 to 130 °C

The reported melting point of the compound O=C1N(Cc2ccc(Br)cc2)c2ccccc2C12COc1cc3c(cc12)OCO3 (stereo not drawn) was 148 to 150 °C

The reported melting point of the compound COc1nc(N)nc2c1ncn2/C=C1\CC1(CO)CO was 179 to 180 °C

The reported melting point of the compound Cc1ccc(S(=O)(=O)OCC2CCc3ncsc3C2)cc1 (stereo not drawn) was 90 to 91 °C

The reported melting point of the compound COc1ccc2c(CN3CCC[C@H]3C(=O)O)cc3cc4c(cc3c2c1)OCO4 was 145 to 146 °C

====

measurement.name: melting point

Guide cases for melting point, answers given:
[
  {
    "molecule": "O=C(Nc1ccccc1O)c1cccnc1Cl",
    "measurement.name": "melting point",
    "experimental.value": "145 to 146 °C"
  },
  {
    "molecule": "O=C1CN(C(=O)Cc2ccccc2Cl)N(Cc2ccc(Cl)cc2)C(=O)N1",
    "measurement.name": "melting point",
    "experimental.value": "224 °C"
  },
  {
    "molecule": "O=C(NCCOc1ccc(CC(Oc2ccccc2)C(=O)O)cc1)c1ccc(-c2ccc(C(F)(F)F)cc2)cc1 (stereo not given)",
    "measurement.name": "melting point",
    "experimental.value": "217 to 218 °C"
  },
  {
    "molecule": "O=C(O)C1=Cc2cc(O)ccc2S(=O)(=O)CC1",
    "measurement.name": "melting point",
    "experimental.value": "260 to 265 °C"
  },
  {
    "molecule": "O=C1Nc2ccc(Cl)cc2C(C#Cc2ccccc2)(C(F)(F)Cl)O1 (racemic)",
    "measurement.name": "melting point",
    "experimental.value": "154 to 155 °C"
  }
]

The reported melting point of the molecule O=C(NCc1ncc[nH]1)c1[nH]c2ccc(Cl)cc2c1S(=O)(=O)c1ccccc1 was 276 to 278 °C

The reported melting point of the molecule COc1cc(CC(=O)NCCCc2ccc(C)c(C)c2)ccc1OCCN was 125 °C

The reported melting point of the molecule CC(C)N1C(=O)N(c2ccc(C#N)c(C(F)(F)F)c2)C(=O)C1(CF)CF was 153 to 154 °C

The reported melting point of the molecule CC(C)(C)OC(=O)NC1CCN(c2ccc(C(=O)O)cc2)CC1 was > 300 °C

The reported melting point of the molecule C=CC(=O)OCc1cn(CCCCCCCCCCCCCCCC)nn1 was 72 to 73 °C
